B1: 5KPH (parent)
chain: EEKRQVKQVAKEKLLEQSPNSKVQVRRVQKQGNTIRVELELRTNGKKENYTVEVERQGNTWTVKRITRT

- Variants of: B1
- experimental-protocol: folding stability dG (cDNA display proteolysis); higher = more stable
- setup-conditions: PBS, room temperature
Each entry below lists one item and its recorded folding stability dG value.
Give the value in kJ/mol but do not write kJ/mol after it.

// known answers, use as guide
R65G ... 15.1
E40H ... 15
N44C ... 14.7
E16V ... 12
R65F ... 14.8
Q5H ... 15.8

For reference, reported folding stability dG for "E48C" stands at 14.1

// "Q24N" : folding stability dG value = 15.8
